Where these numbers come from: ChEMBL document CHEMBL4296182

Test system: Acinetobacter baumannii
Experiment: Antibacterial activity against Acinetobacter baumannii ATCC 19606 (CO-ADD:GN_034); MIC in CAMBH media using NBS plates, by Resazurin F(560/590)
Assay type: functional
Conditions: Concentration 20 uM, ASSAY_TEST Inhibition of Bacterial Growth, detection method Resazurin, Fluorescence (ex560/em590), MEDIA CAMHB, plate type 384well, CORNING #3640, time 18 hr
Values of Inhibition greater than or equal to -10% map to 1 (yes); values below map to 0 (no).

NC(=O)c1ccccc1NC(=O)COc1ccc(Cl)cc1 :: 1 (yes)
NC(=O)Nc1n[nH]c(-c2ccccc2)n1 :: 0 (no)
CN1CCc2ccccc2C1Cc1ccccc1NC(=O)c1sc2ccccc2c1Cl (stereo unspecified) :: 1 (yes)
CN(C)c1nc(Cl)nc2c1nc(Cl)n2C1CCCCO1 (stereo unspecified) :: 1 (yes)
Cc1cc(-c2ccc(N3C(=O)CC4(CCCC4)C3=O)c(C)c2)ccc1N1C(=O)CC2(CCCC2)C1=O :: 0 (no)

Pending compound:
*Q* Say whether "O=C(Nc1ccc(C(=O)O)c(O)c1)c1ccccc1" shows Inhibition of -10% or more.
*A* 0 (no)
